Recorded values, source patent US20240116922A1.

METHOD NOTES: Kinetic solubility assay (CLND), pH 6.8
Assay type: physicochemical
CONDITIONS: aqueous buffer, kinetic from dmso stock; potassium phosphate buffer pH 6.8, 2% DMSO, 24 hours at ambient temperature
Catalogue of solubility kinetic at 24 h readings, one per entry.
Respond numerically; units are µg/mL and should not be typed.

Please review the following examples before continuing.
CC(C)Oc1cc2nc(C34CCC(C)(CC3)OC4)cn2cc1C(=O)Nc1cccn(C2CC2)c1=O
36
CC(C)Oc1nc2nc([C@@]34CC[C@@](C)(C3)OC4)cn2cc1C(=O)Nc1cccc(C(F)F)n1 (single isomer, unassigned) [Comparator 4A, reference compound]
2
CC(C)Oc1cc2nc([C@]34CC[C@H](C3)OC4)cn2cc1C(=O)Nc1cccn(C2CC2)c1=O (single isomer, unassigned)
70.2
CC(C)Oc1cc2nc(C34CC(C#N)(C3)C4)cn2cc1C(=O)Nc1cccn(C2CC2)c1=O
9.5
CC(C)Oc1nc2nc(C34COC(C)(C3)C4)cn2cc1C(=O)Nc1cccn([C@@H]2C[C@H]2C)c1=O (racemic) [Example 95]
35.3
CC12CC(c3cn4cc(C(=O)Nc5cccn([C@H]6C[C@H]6F)c5=O)c(OC5CC5)cc4n3)(CO1)C2
43

// next entry
Prompt: Output solubility kinetic at 24 h of CCC(C)Oc1cc2nc([C@@]34CC[C@@](C)(C3)OC4)cn2cc1C(=O)Nc1cccn(C2CC2)c1=O (stereo partly shown)
Completion: 68.1

* * *

METHOD NOTES: Kinetic solubility assay (CLND), pH 6.8
Assay type: physicochemical
CONDITIONS: aqueous buffer, kinetic from dmso stock; potassium phosphate buffer pH 6.8, 2% DMSO, 24 hours at ambient temperature
RECORDED METRIC: solubility kinetic at 24 h (µg/mL)
Respond numerically; units are µg/mL and should not be typed.

Please review the following examples before continuing.
COCC12CC(c3cn4cc(C(=O)Nc5cccn([C@H]6C[C@H]6F)c5=O)c(OC5CCC5)nc4n3)(CO1)C2 [Example 128]
72.5
CC(C)Oc1cc2nc([C@@]34CC[C@@](C)(C3)OC4)cn2cc1C(=O)Nc1ccnn(C2CC2)c1=O [Example 74]
47.5
CC(C)Oc1cc2nc([C@@]34CC[C@@](C)(C3)OC4)cn2cc1C(=O)Nc1cccn([C@H]2C[C@@H]2F)c1=O (single isomer, unassigned) [Example 117]
23.1

Prompt: Output solubility kinetic at 24 h of CC(C)Oc1nc2nc(C34COC(C)(C3)C4)cn2cc1C(=O)Nc1cccn([C@@H]2C[C@H]2C)c1=O (single isomer, unassigned) [Example 156]
Completion: 62.8

Prompt: Output solubility kinetic at 24 h of CC[C@H](C)Oc1nc2nc(C34COC(C)(C3)C4)cn2cc1C(=O)Nc1cccn([C@H]2C[C@H]2F)c1=O (single isomer, unassigned) [Example 60]
Completion: 55.5

Prompt: Output solubility kinetic at 24 h of COC[C@]12CC[C@](c3cn4cc(C(=O)Nc5cccn([C@H]6C[C@H]6F)c5=O)c(OC(C)C)nc4n3)(CO1)C2 (single isomer, unassigned) [Example 130]
Completion: 63.6

* * *

Catalogue of efflux ratio at 120 min, 1 μM readings, one per entry.
TARGET DESC: UniProt P08183
METHOD NOTES: in vitro
CONDITIONS: MDCK-MDR1

C[C@@]12CC[C@@](c3cn4cc(C(=O)Nc5cccn(C6CC6)c5=O)c(OC5CCC5)nc4n3)(CO1)C2 (single isomer, unassigned)
2.8
CC[C@@H](C)Oc1nc2nc(C34COC(C)(C3)C4)cn2cc1C(=O)Nc1cccn(C2CC2)c1=O (single isomer, unassigned)
5.5
CC(C)Oc1nc2nc([C@@]34CC[C@@](C)(C3)OC4)cn2cc1C(=O)Nc1cccc(C(F)F)n1 (single isomer, unassigned) [Comparator 4A, reference compound]
0.7
CC(C)Oc1cc2nc([C@H]3COCCO3)cn2cc1C(=O)Nc1cccn(C2CC2)c1=O (single isomer, unassigned)
3.9

// next entry
Prompt: Output efflux ratio at 120 min, 1 μM of O=C(Nc1cccn([C@H]2C[C@H]2F)c1=O)c1cn2cc(C34COC(C3)C4)nc2nc1OC1CCC1 (single isomer, unassigned)
Completion: 2.3

* * *

TARGET DESC: UniProt:P08183
METHOD NOTES: in vitro
CONDITIONS: MDCK-MDR1
RECORDED METRIC: efflux ratio at 120 min, 1 μM

Please review the following examples before continuing.
CC[C@H](C)Oc1nc2nc([C@@]34CC[C@@](C)(C3)OC4)cn2cc1C(=O)Nc1cccn(C2CC2)c1=O [Example 49]
3.6
CC12CCC(c3cn4cc(C(=O)Nc5cccn(C6CC6)c5=O)c(OC5CCC5)cc4n3)(CC1)CO2 [Example 1]
1.7

// next entry
Prompt: Output efflux ratio at 120 min, 1 μM of CC(C)Oc1cc2nc([C@]34CC[C@](C)(C3)OC4)cn2cc1C(=O)Nc1cccn([C@H]2C[C@@H]2F)c1=O (single isomer, unassigned) [Example 119]
Completion: 4.2

* * *

TARGET DESC: MDR1 (Homo sapiens (Human), UniProt P08183)
Sequence (P08183 whole entry): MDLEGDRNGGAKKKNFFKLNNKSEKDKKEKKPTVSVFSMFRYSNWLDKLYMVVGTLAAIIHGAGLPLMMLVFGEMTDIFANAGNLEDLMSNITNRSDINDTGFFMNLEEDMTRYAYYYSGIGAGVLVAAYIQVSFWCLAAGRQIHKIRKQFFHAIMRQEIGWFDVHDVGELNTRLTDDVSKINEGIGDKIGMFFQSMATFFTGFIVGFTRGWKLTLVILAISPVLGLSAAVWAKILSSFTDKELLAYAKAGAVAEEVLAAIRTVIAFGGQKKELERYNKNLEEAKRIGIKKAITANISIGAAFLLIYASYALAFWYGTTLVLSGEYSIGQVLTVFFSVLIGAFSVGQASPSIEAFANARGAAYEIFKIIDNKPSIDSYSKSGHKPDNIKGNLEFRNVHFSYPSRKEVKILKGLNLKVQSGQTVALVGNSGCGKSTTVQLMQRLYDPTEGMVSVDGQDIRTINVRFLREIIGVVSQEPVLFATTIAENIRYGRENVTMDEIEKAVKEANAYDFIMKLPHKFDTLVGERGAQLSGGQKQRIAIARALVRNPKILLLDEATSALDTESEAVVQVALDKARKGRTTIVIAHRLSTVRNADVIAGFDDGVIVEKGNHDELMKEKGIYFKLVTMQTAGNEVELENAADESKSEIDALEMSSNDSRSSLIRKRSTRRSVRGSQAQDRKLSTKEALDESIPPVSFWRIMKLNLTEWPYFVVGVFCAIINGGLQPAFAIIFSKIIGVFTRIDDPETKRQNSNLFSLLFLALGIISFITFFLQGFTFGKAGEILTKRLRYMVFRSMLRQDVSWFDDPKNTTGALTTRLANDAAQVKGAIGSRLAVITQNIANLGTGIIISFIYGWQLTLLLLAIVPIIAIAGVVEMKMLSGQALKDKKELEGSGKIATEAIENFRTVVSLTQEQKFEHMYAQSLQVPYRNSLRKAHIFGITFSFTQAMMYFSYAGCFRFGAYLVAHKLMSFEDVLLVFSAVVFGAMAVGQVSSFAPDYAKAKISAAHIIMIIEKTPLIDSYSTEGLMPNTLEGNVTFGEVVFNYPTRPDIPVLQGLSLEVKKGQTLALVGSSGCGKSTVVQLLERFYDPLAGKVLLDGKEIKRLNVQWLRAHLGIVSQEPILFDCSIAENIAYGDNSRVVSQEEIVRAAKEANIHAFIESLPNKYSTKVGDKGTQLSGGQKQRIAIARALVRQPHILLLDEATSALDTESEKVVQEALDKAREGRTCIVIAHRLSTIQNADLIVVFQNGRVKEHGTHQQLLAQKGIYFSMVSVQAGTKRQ
METHOD NOTES: in vitro
CONDITIONS: MDCK-MDR1
RECORDED METRIC: efflux ratio at 120 min, 1 μM

Please review the following examples before continuing.
CC(C)Oc1nc2nc([C@]34CC[C@](C)(C3)OC4)cn2cc1C(=O)Nc1cccn([C@H]2CC23CC3)c1=O (single isomer, unassigned)
1.4
CC[C@H](C)Oc1cc2nc(C34COC(C)(C3)C4)cn2cc1C(=O)Nc1cccn(C2CC2)c1=O
6
CC(C)Oc1nc2nc(C34COC(C)(C3)C4)cn2cc1C(=O)Nc1cccn(C2CC2(F)F)c1=O (stereo not shown)
7.4
COC12CC(c3cn4cc(C(=O)Nc5cccn(C6CC6)c5=O)c(OC(C)C)cc4n3)(C1)C2
3.6
CC(C)Oc1cc2nc([C@]34CC[C@](C)(C3)OC4)cn2cc1C(=O)Nc1cccn([C@@H]2C[C@H]2F)c1=O (single isomer, unassigned)
5.1

Prompt: Output efflux ratio at 120 min, 1 μM of CC(C)Oc1cc2nc([C@@]34CC[C@@H](C3)OC4)cn2cc1C(=O)Nc1cccn(C2CC2)c1=O (single isomer, unassigned)
Completion: 6.8

Prompt: Output efflux ratio at 120 min, 1 μM of "CC(C)Oc1cc2nc(C34COC(C)(C3)C4)cn2cc1C(=O)Nc1cccn([C@H]2C[C@H]2C)c1=O"
Completion: 4.4

* * *

METHOD NOTES: Kinetic solubility assay (CLND), pH 6.8
Assay type: physicochemical
CONDITIONS: aqueous buffer, kinetic from dmso stock; potassium phosphate buffer pH 6.8, 2% DMSO, 24 hours at ambient temperature
RECORDED METRIC: log10 of solubility kinetic at 24 h (log10 of the value in µg/mL)
All values: log10 solubility kinetic at 24 h [µg/mL].

Please review the following examples before continuing.
C[C@@]12CC[C@@](c3cn4cc(C(=O)Nc5cccn(C6CC6)c5=O)c(OC5CCC5)nc4n3)(CO1)C2 (single isomer, unassigned) [Example 16]
0.72
CC(C)Oc1nc2nc(C34COC(C3)C4)cn2cc1C(=O)Nc1cccn([C@H]2C[C@H]2F)c1=O (single isomer, unassigned) [Example 89]
1.38
CC(C)Oc1c(C(=O)Nc2cccn(C3CC3)c2=O)cn2cc(C34COC(C)(C3)C4)nc2c1F [Example 61]
1.82
Cc1cnc2c(NC(=O)c3cn4cc([C@@]56CC[C@@](C)(C5)OC6)nc4cc3OC(C)C)cnn2c1 (single isomer, unassigned) [Comparator 3B, reference compound]
-0.15
CC(C)Oc1cc2nc([C@@]34CC[C@@](C)(C3)OC4)cn2cc1C(=O)Nc1cccn([C@@H]2C[C@H]2C)c1=O (single isomer, unassigned) [Example 191]
1.69
CC12CC(c3cn4cc(C(=O)Nc5cccn([C@H]6C[C@H]6F)c5=O)c(OC5CCC5)nc4n3)(CO1)C2 (single isomer, unassigned) [Example 114]
1.84

Prompt: Output log10 of solubility kinetic at 24 h of CC(C)Oc1cc2nc(C34COC(CF)(C3)C4)cn2cc1C(=O)Nc1cccn(C2CC2)c1=O [Example 9]
Completion: 1.85

Prompt: Output log10 of solubility kinetic at 24 h of CC(C)Oc1nc2nc(C34CCC(C)(CC3)OC4)cn2cc1C(=O)Nc1ccn(C)n1 [Comparator 6C, reference compound]
Completion: 1.69

* * *

METHOD NOTES: Kpuu assay (in vivo brain-to-plasma unbound partition)
CONDITIONS: brain (unbound) versus plasma (unbound); intravenous infusion 4 to 24 h; unbound brain/plasma ratio; read-out: Brain Kpu, u
Cut-off 0.4 on Kpuu (unbound brain-to-plasma partition coefficient): below means True, at or above means False.

CC(C)Oc1nc2nc([C@@]34CC[C@@](CF)(C3)OC4)cn2cc1C(=O)Nc1cccn(C2CC2)c1=O (single isomer, unassigned)
False
CC(C)Oc1cc2nc(C34CCC(C)(CC3)OC4)cn2cc1C(=O)Nc1cccn(C)c1=O [Comparator 5D, reference compound]
False
CC(C)Oc1cc2nc([C@]34CC[C@](C)(C3)OC4)cn2cc1C(=O)Nc1cccn(C2CC2)c1=O (single isomer, unassigned)
True
C[C@@]12CC[C@@](c3cn4cc(C(=O)Nc5cccn(C6CC6)c5=O)c(OC5CCC5)cc4n3)(CO1)C2 (single isomer, unassigned)
True
CC(C)Oc1c(C(=O)Nc2cccn(C3CC3)c2=O)cn2cc(C34COC(C)(C3)C4)nc2c1F
False

Please look at the following compound next.
Prompt: Report whether reported Kpuu (unbound brain-to-plasma partition coefficient) is lower than 0.4 (strictly) for COC[C@]12CC[C@](c3cn4cc(C(=O)Nc5cccn([C@H]6C[C@H]6F)c5=O)c(OC(C)C)nc4n3)(CO1)C2 (single isomer, unassigned)
Completion: True
